tested on: Streptococcus pneumoniae; assay: In vitro antibacterial activity against Streptococcus pneumoniae 5979; assay type: functional
readoutKind: MIC (µg/mL)
Entry rule: numbers only, all in µg/mL.

Field request: MIC | item: CC[C@H]1OC(=O)[C@H](C)C(=O)[C@H](C)[C@@H](OC2O[C@H](C)C[C@H](N(C)C)[C@H]2O)[C@@](C)(OCC#Cc2cnc3ccccc3c2)C[C@@H](C)/C(=N\OC)[C@H](C)[C@H]2NC(=O)O[C@@]21C (stereo partly drawn)
0.25

Field request: MIC | item: CC[C@H]1OC(=O)[C@H](C)C(=O)[C@H](C)[C@@H](O[C@@H]2O[C@H](C)C[C@H](N(C)C)[C@H]2O)[C@](C)(OC)C[C@@H](C)C(=O)[C@H](C)[C@H]2N(CCCCn3cnc(-c4cccnc4)c3)C(=O)O[C@]12C [TELITHROMYCIN]
8
